The entries below come with measured self-cleavage values attached.
B1: HDV Ribozyme (parent)
chain: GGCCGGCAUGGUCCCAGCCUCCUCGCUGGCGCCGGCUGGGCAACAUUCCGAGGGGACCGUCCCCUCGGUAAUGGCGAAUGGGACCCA

Variants of: B1
Assay: self-cleavage, relative activity (ratio to wild type); higher = more cleavage; co-transcriptional
valueKind: self-cleavage

[
  {
    "mutationList": "G50C U72G",
    "resultNumber": 0.415
  },
  {
    "mutationList": "C18G C36A",
    "resultNumber": 0.095
  },
  {
    "mutationList": "G11A C58A",
    "resultNumber": 0.554
  },
  {
    "mutationList": "G6C C62G",
    "resultNumber": 0.151
  },
  {
    "mutationList": "C13G A83U",
    "resultNumber": 0
  },
  {
    "mutationList": "G52A G67C",
    "resultNumber": 0.878
  },
  {
    "mutationList": "C62A U65G",
    "resultNumber": 0.359
  },
  {
    "mutationList": "A42G A43U",
    "resultNumber": 0.185
  },
  {
    "mutationList": "C19A G68C",
    "resultNumber": 0.149
  },
  {
    "mutationList": "A71C U79A",
    "resultNumber": 0.529
  },
  {
    "mutationList": "C36A G76U",
    "resultNumber": 0.119
  },
  {
    "mutationList": "U12C G31U",
    "resultNumber": 0.0386
  },
  {
    "mutationList": "U65G C75U",
    "resultNumber": 0.212
  }
]
